Let's look at some compounds and their measured log10 Ki.
- target: GABA-A receptor; alpha-3/beta-3/gamma-2 (Homo sapiens, UniProt P18507+P28472+P34903)
- Sequence (P18507 whole entry): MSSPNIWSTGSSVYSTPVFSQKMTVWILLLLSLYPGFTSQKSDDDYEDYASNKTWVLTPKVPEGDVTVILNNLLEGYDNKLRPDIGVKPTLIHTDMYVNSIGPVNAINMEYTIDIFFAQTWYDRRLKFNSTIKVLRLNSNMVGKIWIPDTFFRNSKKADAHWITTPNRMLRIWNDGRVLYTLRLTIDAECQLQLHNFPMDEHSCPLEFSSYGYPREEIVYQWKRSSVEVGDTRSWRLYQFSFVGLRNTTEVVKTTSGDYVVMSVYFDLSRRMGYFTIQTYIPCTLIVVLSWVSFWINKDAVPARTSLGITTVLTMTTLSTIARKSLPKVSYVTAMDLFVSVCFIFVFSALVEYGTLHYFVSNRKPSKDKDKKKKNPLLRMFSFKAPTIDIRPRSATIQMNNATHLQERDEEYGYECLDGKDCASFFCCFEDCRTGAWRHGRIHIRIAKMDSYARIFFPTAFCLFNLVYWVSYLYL
- Sequence (P28472 whole entry): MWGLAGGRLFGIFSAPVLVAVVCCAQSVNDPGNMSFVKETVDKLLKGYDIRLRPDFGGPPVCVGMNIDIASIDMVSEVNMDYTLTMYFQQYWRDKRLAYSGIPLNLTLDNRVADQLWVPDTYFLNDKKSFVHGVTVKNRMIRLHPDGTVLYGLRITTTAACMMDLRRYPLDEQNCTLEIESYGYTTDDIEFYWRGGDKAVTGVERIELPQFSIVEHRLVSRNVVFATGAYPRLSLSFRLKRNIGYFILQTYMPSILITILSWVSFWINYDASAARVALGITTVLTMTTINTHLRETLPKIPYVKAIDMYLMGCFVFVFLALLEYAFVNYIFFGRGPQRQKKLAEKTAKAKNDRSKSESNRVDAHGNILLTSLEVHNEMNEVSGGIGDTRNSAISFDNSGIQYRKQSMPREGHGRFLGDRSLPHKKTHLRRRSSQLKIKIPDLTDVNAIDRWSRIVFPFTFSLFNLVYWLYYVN
- Sequence (P34903 whole entry): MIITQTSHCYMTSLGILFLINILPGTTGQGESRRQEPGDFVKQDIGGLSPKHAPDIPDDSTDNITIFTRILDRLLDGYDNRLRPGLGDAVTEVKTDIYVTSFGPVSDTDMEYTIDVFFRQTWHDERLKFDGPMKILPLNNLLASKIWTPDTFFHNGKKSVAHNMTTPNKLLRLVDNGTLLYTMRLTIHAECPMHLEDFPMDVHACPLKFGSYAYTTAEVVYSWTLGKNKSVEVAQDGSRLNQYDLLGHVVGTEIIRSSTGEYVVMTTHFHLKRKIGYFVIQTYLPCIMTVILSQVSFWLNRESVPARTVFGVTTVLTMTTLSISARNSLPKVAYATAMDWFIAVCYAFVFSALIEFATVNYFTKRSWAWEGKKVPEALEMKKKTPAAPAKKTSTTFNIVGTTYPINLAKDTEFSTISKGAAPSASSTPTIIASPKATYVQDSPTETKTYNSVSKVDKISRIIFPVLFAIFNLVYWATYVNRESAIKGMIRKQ
- procedure.details: Inhibition of [3H]Ro15-1788 binding to human recombinant GABA-Aalpha3 plus beta-3-gamma-2 receptor expressed in L(tk-) cells
- Format: cell-based
outcome.measure: log10 Ki (log10 of the value in nM)

# smiles.structure, observed.value
records = [
    ("Cn1ncnc1COc1nn2c(-c3ccccc3F)nncc2c1-c1ccncc1", -0.85),
    ("Cn1ncnc1COc1nn2c(-c3cccnc3)nncc2c1-c1ccccc1F", 0.04),
    ("Cc1ccccc1-c1c(OCc2ncnn2C)nn2c(-c3ccccc3F)nncc12", 1.36),
    ("Cn1ncnc1COc1nn2c(C3CC3)nncc2c1-c1ccccc1F", -0.44),
    ("Cn1ncnc1COc1nn2c(-c3ccccc3F)nncc2c1-c1cccc(C(F)(F)F)c1", -0.27),
]
